- System: cancer cell lines
- METHOD SUMMARY: Cancer cell proliferation activity (CellTiterGlo, 72 h)
- Type: cell-based
- PARTICULARS: Homo sapiens, Kasumi 1, 72 h, KASUMI-1 (hematological), 72 h; read-out: IC50 cell proliferation
So basically, if IC50 comes in under 0.6 µM it's 1, and if it's 0.6 µM or more it's 0.

input: Consider the molecule `Nc1nc(=O)n([C@H]2C[C@H](O)[C@@H](CO)O2)cc1F` . Is its IC50 strictly less than 0.6 µM?
output: 1

input: I wonder whether `Nc1nc(F)nc2c1ncn2[C@H]1C[C@H](O)[C@](CO)(CC2CC2)O1` has IC50 below 0.6 µM. Can you tell?
output: 1

input: Could you please tell me whether IC50 recorded for `C[C@]1(CO)O[C@@H](n2ccc(N)nc2=O)[C@@H](O)[C@@H]1O` is less than 0.6 µM?
output: 1

input: Find out if reported IC50 for `Nc1nc(F)nc2c1ncn2[C@@H]1O[C@H](CO)[C@@H](O)[C@H]1O` is less than 0.6 µM
output: 1

input: Find out if reported IC50 for `C#C[C@]1(CO)O[C@@H](n2cc(Cl)c(N)nc2=O)C[C@@H]1O` is less than 0.6 µM
output: 0

input: Record `C[C@]1(CO)O[C@@H](n2cnc3c(N)nc(F)nc32)[C@H](O)[C@@H]1O` : is its IC50 strictly below 0.6 µM?
output: 1

input: Please determine if `C[C@]1(CO)O[C@@H](n2ccc(N)nc2=O)C(F)(F)[C@@H]1O` is below 0.6 µM in terms of IC50.
output: 0

input: # check: IC50 < 0.6 µM for `CC[C@]1(CO)O[C@@H](n2cnc3c(O)nc(N)nc32)C[C@@H]1O`
output: 0

input: Please indicate whether the reported IC50 of `Nc1ccn([C@H]2C[C@H](O)[C@](CO)(CF)O2)c(=O)n1` is strictly below 0.6 µM.
output: 1

input: Quick check: IC50 of `C[C@]1(CO)O[C@@H](n2cnc3c(O)nc(N)nc32)C[C@@H]1O` under 0.6 µM?
output: 0

input: Determine whether this molecule shows IC50 lower than 0.6 µM (ties excluded): `Nc1nc(F)nc2c1ncn2[C@@H]1O[C@H](CO)[C@@H](O)[C@@H]1O`
output: 1

input: Is IC50 strictly under 0.6 µM for the entry `O=c1[nH]c(=O)n([C@H]2C[C@H](O)[C@@H](CO)O2)cc1F` ?
output: 1

input: Does this molecule meet the criterion IC50 < 0.6 µM? `Nc1nc(F)nc2c1ncn2[C@H]1C[C@H](O)[C@@H](CO)O1`
output: 1

input: Take the molecule `C#C[C@]1(CO)O[C@@H](n2cnc3c(=O)[nH]c(N)nc32)[C@H](F)[C@@H]1O` and say whether its IC50 is less than 0.6 µM.
output: 0

input: Consider `N#C[C@]1(CO)O[C@@H](n2cc(F)c(=O)[nH]c2=O)C[C@@H]1O` . Does its IC50 lie strictly below 0.6 µM?
output: 0

input: Please let me know if `CCC[C@]1(CO)O[C@@H](n2cnc3c(N)nc(F)nc32)[C@H](O)[C@@H]1O` shows IC50 below 0.6 µM.
output: 1

input: Quick check: IC50 of `Nc1nc(=O)n([C@H]2C[C@H](O)[C@](CO)(CF)O2)cc1F` under 0.6 µM?
output: 1

input: Please let me know if `Nc1nc(F)nc2c1ncn2[C@H]1C[C@H](O)[C@](CO)(C2CC2)O1` shows IC50 below 0.6 µM.
output: 0

---

- System: cancer cell lines
- METHOD SUMMARY: Cancer cell proliferation activity (CellTiterGlo, 72 h)
- Format: cell-based
- PARTICULARS: Homo sapiens, SK-BR-3, 72 h, SKBR3 (breast), 72 h; read-out: IC50 cell proliferation
Assignment: determine reported IC50 for the given molecules.
Give the number; µM is assumed, so skip it.

Recorded result, `N#C[C@]1(CO)O[C@@H](n2cc(F)c(=O)[nH]c2=O)C[C@@H]1O` , IC50: 0.97

Lab book: IC50 of `Nc1ccn([C@H]2C[C@H](O)[C@](CO)(CF)O2)c(=O)n1` noted as 0.26

Looking up `Nc1nc(F)nc2c1ncn2[C@H]1C[C@H](O)[C@](CO)(CC2CC2)O1` , I see its IC50 listed as 0.12

According to the records, this molecule `C[C@]1(CO)O[C@@H](n2ccc(N)nc2=O)C(F)(F)[C@@H]1O` displays IC50 of 4.56

Entry `C[C@]1(CO)O[C@@H](n2cnc3c(N)nc(F)nc32)[C@H](O)[C@@H]1O` , IC50 reported as 0.01

Recorded result, `C#C[C@]1(CO)O[C@@H](n2cc(Cl)c(N)nc2=O)C[C@@H]1O` , IC50: 0.98

According to the records, this molecule `Nc1nc(F)nc2c1ncn2[C@@H]1O[C@H](CO)[C@@H](O)[C@H]1O` displays IC50 of 0.01

// IC50 value for `CCC[C@]1(CO)O[C@@H](n2cnc3c(N)nc(F)nc32)[C@H](O)[C@@H]1O` : 0.03

Summary for this molecule, `C[C@]1(CO)O[C@@H](n2ccc(N)nc2=O)[C@@H](O)[C@@H]1O` : IC50 is 3.5

# IC50 (molecule: `Nc1nc(F)nc2c1ncn2[C@@H]1O[C@H](CO)[C@@H](O)[C@@H]1O` ) is 1.58

Quick note, IC50 for `O=c1[nH]c(=O)n([C@H]2C[C@H](O)[C@@H](CO)O2)cc1F` landed at 0.001

IC50 reported for this molecule `C[C@]1(CO)O[C@@H](n2cnc3c(O)nc(N)nc32)C[C@@H]1O` : 3.45

Memo: `Nc1nc(F)nc2c1ncn2[C@H]1C[C@H](O)[C@](CO)(C2CC2)O1` , reported IC50: 1.06

Value of IC50 reported for the molecule `Nc1nc(=O)n([C@H]2C[C@H](O)[C@](CO)(CF)O2)cc1F` is 0.005

Looking up `Nc1nc(F)nc2c1ncn2[C@H]1C[C@H](O)[C@@H](CO)O1` , I see its IC50 listed as 0.14

---

- Test system: cancer cell lines
- METHOD SUMMARY: Cancer cell proliferation activity (CellTiterGlo, 72 h)
- Type: cell-based
- PARTICULARS: Homo sapiens, MG-63, 72 h, MG63 (bone), 72 h; read-out: IC50 cell proliferation
- Experimental: Dose response relationships on cell proliferation was assessed for representative Compounds of the Disclosure on cancer cell lines. […] Cells were cultured in the appropriate media. […] After incubation for 72 h at 37° C. at 5% or 10% CO2 dependent on the medium, cell plates were equilibrated to room temperature for one hour, CellTiterGlo reagent (Promega) was added and luminescence was measured approximately an hour later using a luminometer. […]
ENDPOINT: IC50 (nM)
Numeric only. Scale: nM

Entry Nc1nc(F)nc2c1ncn2[C@@H]1O[C@H](CO)[C@@H](O)[C@@H]1O [compound 170] ; IC50 = 15500

Kindly note the recorded IC50 for CCC[C@]1(CO)O[C@@H](n2cnc3c(N)nc(F)nc32)[C@H](O)[C@@H]1O [compound 195] , which is 1730

Entry under test: Nc1nc(F)nc2c1ncn2[C@H]1C[C@H](O)[C@@H](CO)O1 [compound 171] . Its IC50 was 1630

---

- System: cancer cell lines
- METHOD SUMMARY: Cancer cell proliferation activity (CellTiterGlo, 72 h)
- Type: cell-based
- PARTICULARS: Homo sapiens, HEK293, 72 h, HEK293 cell line (kidney), 72 h; read-out: IC50
ENDPOINT: IC50 (µM)
Give the quantity in µM, number only.

Looking up `COC[C@]1(CO)O[C@@H](n2cnc3c(N)nc(F)nc32)C[C@@H]1O` , I found its IC50 recorded as 0.46

Just so you know, measured IC50 for `C[C@]1(CO)O[C@@H](n2cc(F)c(=O)[nH]c2=O)C[C@@H]1O` came out at 4.35

The reported IC50 of the molecule `Nc1nc(F)nc2c1ncn2[C@H]1C[C@H](O)[C@](CO)(CF)O1` was 2.46

For reference, reported IC50 for `CC(C)C[C@]1(CO)O[C@@H](n2cnc3c(N)nc(F)nc32)C[C@@H]1O` stands at 5.3

---

- Test system: cancer cell lines
- METHOD SUMMARY: Cancer cell proliferation activity (CellTiterGlo, 72 h)
- Format: cell-based
- PARTICULARS: Homo sapiens, Ramos, 72 h, RAMOS cell line (hematological), 72 h; read-out: IC50
ENDPOINT: IC50 (nM)
Enter your answer as a number in nM; do not include the unit.

compound `COC[C@]1(CO)O[C@@H](n2cnc3c(N)nc(F)nc32)C[C@@H]1O` , IC50 observed: 600

# compound `C=C[C@]1(CO)O[C@@H](Nc2[nH]c(=O)ncc2Br)C[C@@H]1O` ; its IC50 = 1410

For reference, reported IC50 for `C[C@]1(CO)O[C@@H](n2cnc3c(N)nc(F)nc32)C[C@@H]1O` stands at 560

The compound listed as `CC[C@]1(CO)O[C@@H](n2cc(F)c(N)nc2=O)C[C@@H]1O` has a reported IC50 of 1770

So for `C[C@]1(CO)O[C@@H](n2cc(F)c(N)nc2=O)C[C@@H]1O` , the logged IC50 turned out to be 160

Per the record, `Nc1nc(F)nc2c1ncn2[C@H]1C[C@H](O)[C@](CO)(CF)O1` has IC50 of 2440

// IC50 value for `N#C[C@]1(CO)O[C@@H](n2cc(F)c(N)nc2=O)C[C@@H]1O` : 8680

Recorded IC50 (compound `CCC[C@]1(CO)O[C@@H](n2cnc3c(N)nc(F)nc32)C[C@@H]1O` ): 520

Form field IC50, entry `CC[C@]1(CO)O[C@@H](n2cnc3c(N)nc(F)nc32)C[C@@H]1O` : 940

Kindly note the recorded IC50 for `CC(C)C[C@]1(CO)O[C@@H](n2cnc3c(N)nc(F)nc32)C[C@@H]1O` , which is 3680

Value of measured IC50 for the entry `CC[C@]1(CO)O[C@@H](n2cnc3c(N)nc(F)nc32)[C@H](O)[C@@H]1O` : 80

Entry under test: `C[C@]1(CO)O[C@@H](n2cc(F)c(=O)[nH]c2=O)C[C@@H]1O` . Its IC50 was 3140

The recorded IC50 for entry Nc1ccn([C@@H]2O[C@H](CO)[C@@H](O)C2(F)F)c(=O)n1 [gemcitabine, reference compound] equals 0.6
